Here, each record is paired with measured log10 IC50 data.
target: human A2A receptor (A2AR) (Homo sapiens (Human)); assay: Luciferase reporter assay (HEK293-A2AR-luc2p/CRE/Hygro cells); format: cell-based; conditions: 3 nM CGS21680, 5 h incubation
Sequence (P29274 whole entry): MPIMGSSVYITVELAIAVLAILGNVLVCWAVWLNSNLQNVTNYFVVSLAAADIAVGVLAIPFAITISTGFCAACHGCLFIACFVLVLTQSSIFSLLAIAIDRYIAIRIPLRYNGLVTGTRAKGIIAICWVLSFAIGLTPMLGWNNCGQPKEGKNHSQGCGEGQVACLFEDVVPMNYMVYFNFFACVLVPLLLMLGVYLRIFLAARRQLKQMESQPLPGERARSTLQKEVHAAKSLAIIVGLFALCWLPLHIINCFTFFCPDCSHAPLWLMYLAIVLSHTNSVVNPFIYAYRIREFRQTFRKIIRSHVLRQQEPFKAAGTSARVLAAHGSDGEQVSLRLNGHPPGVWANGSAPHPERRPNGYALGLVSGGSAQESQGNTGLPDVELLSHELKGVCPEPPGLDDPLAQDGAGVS
Scale: decimal log of IC50, IC50 in nM.

Inquiry: # lookup: log10 IC50 of CC(C(=O)NCC1(O)COC1)(c1ccccc1)n1ncc2c1nc(N)n1nc(-c3nccs3)nc21 (stereo not drawn)
Reply text: 1.18

Inquiry: Can you handle Nc1nc2c(cnn2C(C(=O)NC2CCOCC2)c2ccccc2)c2nc(-c3ccco3)nn12 (stereo not drawn) next?
Reply text: 1.56

Inquiry: Same read-out for CC(C(=O)NCC1COC1)(c1ccccc1)n1ncc2c1nc(N)n1nc(-c3ccco3)nc21 (stereo not drawn) ?
Reply text: 1.49

Inquiry: Moving on to the next compound: Cc1cccc(CNC(=O)C(C)(c2ccccc2)n2ncc3c2nc(N)n2nc(-c4ccco4)nc32)n1 (stereo not drawn)
Reply text: 0.48

Inquiry: Item: C[C@](C(=O)N[C@H]1CC[C@@H](O)CC1)(c1ccccc1)n1ncc2c1nc(N)n1nc(-c3ccco3)nc21 [Example 76B]
Reply text: 0.34

Inquiry: Param item: CC(C(=O)N[C@H]1CCCOC1)(c1ccccc1)n1ncc2c1nc(N)n1nc(-c3ccco3)nc21 (stereo partly drawn)
Reply text: 1.05

Inquiry: Also C[C@](C(=O)NCCN1CCC(O)CC1)(c1ccccc1)n1ncc2c1nc(N)n1nc(-c3ccco3)nc21 [Example 148B] , if possible.
Reply text: 1.29

====

target: UniProt P30542
Sequence (P30542 whole entry): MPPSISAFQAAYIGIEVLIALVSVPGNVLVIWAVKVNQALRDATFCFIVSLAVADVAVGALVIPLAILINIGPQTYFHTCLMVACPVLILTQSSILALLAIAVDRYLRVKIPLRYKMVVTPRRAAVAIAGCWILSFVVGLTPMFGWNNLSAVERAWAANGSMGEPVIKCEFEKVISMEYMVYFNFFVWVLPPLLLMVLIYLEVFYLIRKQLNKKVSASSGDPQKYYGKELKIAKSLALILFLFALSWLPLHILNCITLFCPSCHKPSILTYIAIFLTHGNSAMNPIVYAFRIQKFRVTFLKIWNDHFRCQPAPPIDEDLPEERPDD
valueType: pKi
Scale: negative log10 of molar concentration, which is what pKi denotes.

C[C@](C(=O)N[C@H]1CC[C@@H](O)CC1)(c1ccccc1)n1ncc2c1nc(N)n1nc(-c3ccco3)nc21 [Example 76B]; 6.82
CC1(O)CCC(NC(=O)[C@@](C)(c2ccccc2)n2ncc3c2nc(N)n2nc(-c4ccco4)nc32)CC1 (some centres unmarked) [Example 69B]; 6.27
C[C@](C(=O)N[C@@H]1CCC[C@@H]1O)(c1ccccc1)n1ncc2c1nc(N)n1nc(-c3ccco3)nc21 [Example 48B]; 7.92

Inquiry: Entry Nc1nc2c(cnn2[C@H](C(=O)NCC2(O)COC2)c2ccccc2)c2nc(-c3ccco3)nn12 [Example 82B] : reported pKi = ?
Reply text: 8.14

Inquiry: Then C[C@](C(=O)NCC1(O)COC1)(c1ccccc1)n1ncc2c1nc(N)n1nc(-c3ccco3)nc21 [Example 31B] ?
Reply text: 6.74

====

Overview of recorded IC50 for various compounds
molecular target: human A2A receptor (A2AR) (Homo sapiens (Human)); test: Luciferase reporter assay (HEK293-A2AR-luc2p/CRE/Hygro cells); type: cell-based; conditions: 3 nM CGS21680, 5 h incubation
Value expressed in nM; do not type the unit.

Example cases with answers are listed next.
CCNC(=O)C(c1ccccc1)n1ncc2c1nc(N)n1nc(-c3ccco3)nc21 (centres unmarked) [Example 5]; 7
Cc1ccccc1C(C)(C(=O)NCC1(O)COC1)n1ncc2c1nc(N)n1nc(-c3ccco3)nc21 (centres unmarked) [Example 63]; 4.3

Inquiry: Would you mind telling me what IC50 value was observed for CC(C(=O)NCCN1CCNCC1)(c1ccccc1)n1ncc2c1nc(N)n1nc(-c3ccco3)nc21 (centres unmarked) [Example 45] ?
Reply text: 22.4

Inquiry: Try this compound too: C[C@@H](NC(=O)C(c1ccccc1)n1ncc2c1nc(N)n1nc(-c3ccco3)nc21)c1ccccc1 (some centres unmarked) [Example 10]
Reply text: 16.5

Inquiry: Try C[C@](C(=O)NC1CC[S+]([O-])CC1)(c1ccccc1)n1ncc2c1nc(N)n1nc(-c3ccco3)nc21 (single isomer, unassigned) [Example 146B-2] next.
Reply text: 43.9
